- systemUnderTest: non-phosphorylated Abl1 kinase (Homo sapiens)
- assaySummary: KdELECT assay (DiscoverX), dissociation constants with Abl1 kinase
- details: Kd, Replicate 3, non-phosphorylated Abl1 kinase; single replicate 3, Hill equation
pKd: −log10 of the molar value.
quantityMeasured: pKd

INSERT INTO results (compound, measuredresult) VALUES
  ('Cc1ccc(C(=O)Nc2cc(C(F)(F)F)c(CN3CCN(C)CC3)cc2S)cc1C#Cc1cnc2[nH]ncc2c1 [GZD824-SH (3a)]', 9.30),
  ('Cc1ccc(-c2nc3cc(C(F)(F)F)c(CN4CCN(C)CC4)cc3s2)cc1C#Cc1cnc2cccnn12 [Ponatinib-BT (2b)]', 8.19),
  ('Cc1ccc(C(=O)Nc2ccc(CN3CCN(C)CC3)c(C(F)(F)F)c2)cc1C#Cc1cnc2[nH]ncc2c1 [GZD824 (3), GZD824, reference compound]', 9.52),
  ('Cc1ccc(C(=O)Nc2cc(C(F)(F)F)c(CN3CCN(C)CC3)cc2S)cc1C#Cc1cnc2cccnn12 [Ponatinib-SH (2a)]', 9.22),
  ('Cc1cn(-c2cc(C(F)(F)F)cc(NC(=O)c3ccc(C)c(Nc4nccc(-c5cccnc5)n4)c3)c2S)cn1 [Nilotinib-SH (1a)]', 6.10);

----------
- systemUnderTest: non-phosphorylated Abl1 kinase (Homo sapiens, UniProt P00519)
- Sequence (P00519 whole entry): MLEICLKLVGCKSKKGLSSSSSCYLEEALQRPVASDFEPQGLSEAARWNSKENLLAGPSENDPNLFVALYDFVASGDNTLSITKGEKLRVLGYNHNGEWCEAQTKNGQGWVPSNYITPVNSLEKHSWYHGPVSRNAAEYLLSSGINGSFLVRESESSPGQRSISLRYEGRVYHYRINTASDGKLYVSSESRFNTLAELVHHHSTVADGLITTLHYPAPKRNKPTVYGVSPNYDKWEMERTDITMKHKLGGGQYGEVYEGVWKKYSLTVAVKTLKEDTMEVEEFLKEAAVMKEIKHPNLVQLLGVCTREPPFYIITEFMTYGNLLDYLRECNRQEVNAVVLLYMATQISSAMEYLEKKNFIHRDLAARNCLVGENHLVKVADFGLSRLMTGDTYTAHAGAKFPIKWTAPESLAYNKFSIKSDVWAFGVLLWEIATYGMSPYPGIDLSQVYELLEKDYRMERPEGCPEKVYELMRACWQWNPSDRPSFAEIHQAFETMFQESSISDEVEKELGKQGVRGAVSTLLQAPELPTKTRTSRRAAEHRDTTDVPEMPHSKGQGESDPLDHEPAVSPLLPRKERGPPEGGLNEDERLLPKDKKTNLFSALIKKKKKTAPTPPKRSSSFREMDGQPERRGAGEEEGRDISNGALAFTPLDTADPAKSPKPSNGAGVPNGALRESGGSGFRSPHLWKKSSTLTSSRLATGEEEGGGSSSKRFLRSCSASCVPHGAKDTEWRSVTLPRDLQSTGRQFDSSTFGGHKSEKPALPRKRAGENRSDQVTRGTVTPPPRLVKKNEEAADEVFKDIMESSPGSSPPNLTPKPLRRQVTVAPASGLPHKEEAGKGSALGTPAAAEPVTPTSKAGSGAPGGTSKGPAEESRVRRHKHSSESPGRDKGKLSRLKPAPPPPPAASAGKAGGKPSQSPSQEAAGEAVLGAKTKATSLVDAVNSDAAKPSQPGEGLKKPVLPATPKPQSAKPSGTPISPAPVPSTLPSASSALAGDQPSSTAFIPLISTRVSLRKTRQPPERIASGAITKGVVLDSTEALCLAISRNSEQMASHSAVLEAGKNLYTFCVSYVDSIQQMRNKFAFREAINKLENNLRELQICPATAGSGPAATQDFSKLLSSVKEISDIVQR
- assaySummary: KdELECT assay (DiscoverX), dissociation constants with Abl1 kinase
- details: Kd, Replicate 1, non-phosphorylated Abl1 kinase; single replicate 1, Hill equation
log10 of Kd by entry:
quantityMeasured: log10 of Kd (log10 of the value in nM)

INSERT INTO assay_data (compound, quantitymeasured, measuredresult) VALUES
  ('Cc1cn(-c2cc(C(F)(F)F)cc(NC(=O)c3ccc(C)c(Nc4nccc(-c5cccnc5)n4)c3)c2S)cn1 [Nilotinib-SH (1a)]', 'log10 of Kd', 3.06),
  ('Cc1ccc(C(=O)Nc2cc(C(F)(F)F)c(CN3CCN(C)CC3)cc2S)cc1C#Cc1cnc2[nH]ncc2c1 [GZD824-SH (3a)]', 'log10 of Kd', 0.08),
  ('Cc1ccc(C(=O)Nc2cc(C(F)(F)F)c(CN3CCN(C)CC3)cc2S)cc1C#Cc1cnc2cccnn12 [Ponatinib-SH (2a)]', 'log10 of Kd', -0.30),
  ('Cc1ccc(C(=O)Nc2ccc(CN3CCN(C)CC3)c(C(F)(F)F)c2)cc1C#Cc1cnc2[nH]ncc2c1 [GZD824 (3), GZD824, reference compound]', 'log10 of Kd', 0.00),
  ('Cc1ccc(-c2nc3cc(C(F)(F)F)c(CN4CCN(C)CC4)cc3s2)cc1C#Cc1cnc2cccnn12 [Ponatinib-BT (2b)]', 'log10 of Kd', 1.06);

----------
log10 of Kd by entry:
- systemUnderTest: non-phosphorylated Abl1 kinase (Homo sapiens, UniProt P00519)
- assaySummary: KdELECT assay (DiscoverX), dissociation constants with Abl1 kinase
- details: Kd, Replicate 4, non-phosphorylated Abl1 kinase; single replicate 4, Hill equation
quantityMeasured: log10 of Kd (log10 of the value in nM)

INSERT INTO measurements (molecule, systemundertest, measuredresult) VALUES
  ('Cc1ccc(C(=O)Nc2cc(C(F)(F)F)c(CN3CCN(C)CC3)cc2S)cc1C#Cc1cnc2[nH]ncc2c1', 'non-phosphorylated Abl1 kinase (Homo sapiens, UniProt P00519)', -0.30),
  ('Cc1ccc(C(=O)Nc2cc(C(F)(F)F)c(CN3CCN(C)CC3)cc2S)cc1C#Cc1cnc2cccnn12', 'non-phosphorylated Abl1 kinase (Homo sapiens, UniProt P00519)', -0.22),
  ('Cc1cn(-c2cc(C(F)(F)F)cc(NC(=O)c3ccc(C)c(Nc4nccc(-c5cccnc5)n4)c3)c2S)cn1', 'non-phosphorylated Abl1 kinase (Homo sapiens, UniProt P00519)', 2.90),
  ('Cc1ccc(-c2nc3cc(C(F)(F)F)c(CN4CCN(C)CC4)cc3s2)cc1C#Cc1cnc2cccnn12', 'non-phosphorylated Abl1 kinase (Homo sapiens, UniProt P00519)', 0.79),
  ('Cc1ccc(C(=O)Nc2ccc(CN3CCN(C)CC3)c(C(F)(F)F)c2)cc1C#Cc1cnc2[nH]ncc2c1 [GZD824 (3), GZD824, reference compound]', 'non-phosphorylated Abl1 kinase (Homo sapiens, UniProt P00519)', -0.40);
